- system tested: Prothrombin (Homo sapiens)
- measurement description: human alpha-thrombin inhibitors, primary screen, counter-screen for coagulation protease inhibitor project, biochemical, 1536-well, fluorogenic AMC substrate (AID 1046);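 further: 0% = enzyme with no compound and 100% = wells without enzyme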
- test conditions: Boc-VPR-AMC fluorogenic substrate cleavage, at 5 µM, stronger effect = higher value
Screen size: about 220,000 compounds; about 560 (0.25%) were called active. The list comes from a sample in which actives are over-represented; it also holds close analogues and randomly drawn compounds.
List of inhibition values.

molecule	system tested	unit spec	inhibition
CCN1CCN(c2nc(Nc3cc(OC)ccc3OC)nc(Nc3cc(OC)ccc3OC)n2)CC1	Prothrombin (Homo sapiens)	%	-2.15
CC/C=C/C(=O)N1CC2(CC(c3cccc(NC(=O)CC)c3)=NO2)C[C@H]1C(N)=O (some centres undefined)	Prothrombin (Homo sapiens)	%	-2.66
Cc1cc(C(=O)COc2ccccc2[N+](=O)[O-])c(C)n1-c1cccc(S(=O)(=O)N2CCOCC2)c1	Prothrombin (Homo sapiens)	%	5.89
O=C(Nn1cnc2ccccc2c1=O)c1ccc([N+](=O)[O-])cc1Cl	Prothrombin (Homo sapiens)	%	6.94
Cc1ccc(NNC(=O)c2cccs2)cc1Cl	Prothrombin (Homo sapiens)	%	0.15
Cc1cccc(NC(=S)Nc2ccc(Br)cc2)c1	Prothrombin (Homo sapiens)	%	3.41
CCCCNS(=O)(=O)c1ccc2nc(SCC(=O)Nc3cc(C)cc(C)c3)[nH]c2c1	Prothrombin (Homo sapiens)	%	-6.37
COCCOC(=O)c1c(C)oc2cc(Br)c(OCC(N)=O)cc12	Prothrombin (Homo sapiens)	%	-6.6
CCOC(=O)CSc1nc(C)cc2c1C(=O)OC2	Prothrombin (Homo sapiens)	%	-3.04
